measurement_description: Log P by HPLC on reversed phase columns (EEC directive 79/831 Annex V.A8; methods [a], [b], [c])
Assay type: physicochemical
stated_conditions: reversed phase HPLC column; method [a]: LC-UV, acidic range, 0.1% formic acid in water and acetonitrile as eluent (linear gradient from 10% to 95% acetonitrile)
Protocol: Measurement of Log P values was performed according to EEC directive 79/831 Annex V.A8 by HPLC (High Performance Liquid Chromatography) on reversed phase columns with the following methods: • ^[a] Log P value is determined by measurement of LC-UV, in an acidic range, with 0.1% formic acid in water and acetonitrile as eluent (linear gradient from 10% acetonitrile to 95% acetonitrile). • ^[b] […]
Record form. Attribute: chromatographic logP. Fill in for each entry.
Form: value (number only, do not type unit).

## Task # query: chromatographic logP of entry "O=C(Cn1cncc1Cl)c1ccc(Oc2ccc(Cl)cn2)cc1Cl"
## Result 2.53

## Task # query: chromatographic logP of entry "O=C(Cn1cncc1F)c1ccc(Oc2ccc(C(F)F)cc2)nc1Cl"
## Result 2.12

## Task # query: chromatographic logP of entry "N#Cc1cncn1CC(=O)c1ccc(Oc2ccc(Br)cc2)cc1C(F)(F)F"
## Result 3.65

## Task # query: chromatographic logP of entry "O=C(Cn1cncc1Br)c1ccc(Oc2ccc(Cl)cc2)cc1Cl"
## Result 3.07

## Task # query: chromatographic logP of entry "O=C(Cn1cncc1Cl)c1ccc(Oc2ccc(Br)cc2)cc1C(F)(F)F"
## Result 3.37
